Measurement description: Tmax in lung transplant recipient epithelial lining fluid at 400 mg, po every 12 hrs after 12 hrs by LC/MS analysis
Assay type: ADME, organism-based
Experimental conditions: human
Observed property: Tmax (h)
Express it in h; write the number only.

[ask] Tmax lookup needed for `CC[C@@H]([C@H](C)O)n1ncn(-c2ccc(N3CCN(c4ccc(OC[C@@H]5CO[C@@](Cn6cncn6)(c6ccc(F)cc6F)C5)cc4)CC3)cc2)c1=O` , thanks.
[reply] 5.3

====

Measurement description: Drug level in lung transplant recipient plasma at 400 mg, po every 12 hrs after 8 hrs by LS/MS analysis
Format: ADME, organism-based
Experimental conditions: human, read-out: Drug uptake
Observed property: concentration at 8 h (ng/mL)
Express it in ng/mL; write the number only.

[ask] concentration at 8 h lookup needed for CC[C@@H]([C@H](C)O)n1ncn(-c2ccc(N3CCN(c4ccc(OC[C@@H]5CO[C@@](Cn6cncn6)(c6ccc(F)cc6F)C5)cc4)CC3)cc2)c1=O [POSACONAZOLE] , thanks.
[reply] 810
